Cited source for all entries: patent US20230416297A1

List of IC50 values.
Target: androgen receptor (Homo sapiens, UniProt P10275)
Sequence (P10275 whole entry): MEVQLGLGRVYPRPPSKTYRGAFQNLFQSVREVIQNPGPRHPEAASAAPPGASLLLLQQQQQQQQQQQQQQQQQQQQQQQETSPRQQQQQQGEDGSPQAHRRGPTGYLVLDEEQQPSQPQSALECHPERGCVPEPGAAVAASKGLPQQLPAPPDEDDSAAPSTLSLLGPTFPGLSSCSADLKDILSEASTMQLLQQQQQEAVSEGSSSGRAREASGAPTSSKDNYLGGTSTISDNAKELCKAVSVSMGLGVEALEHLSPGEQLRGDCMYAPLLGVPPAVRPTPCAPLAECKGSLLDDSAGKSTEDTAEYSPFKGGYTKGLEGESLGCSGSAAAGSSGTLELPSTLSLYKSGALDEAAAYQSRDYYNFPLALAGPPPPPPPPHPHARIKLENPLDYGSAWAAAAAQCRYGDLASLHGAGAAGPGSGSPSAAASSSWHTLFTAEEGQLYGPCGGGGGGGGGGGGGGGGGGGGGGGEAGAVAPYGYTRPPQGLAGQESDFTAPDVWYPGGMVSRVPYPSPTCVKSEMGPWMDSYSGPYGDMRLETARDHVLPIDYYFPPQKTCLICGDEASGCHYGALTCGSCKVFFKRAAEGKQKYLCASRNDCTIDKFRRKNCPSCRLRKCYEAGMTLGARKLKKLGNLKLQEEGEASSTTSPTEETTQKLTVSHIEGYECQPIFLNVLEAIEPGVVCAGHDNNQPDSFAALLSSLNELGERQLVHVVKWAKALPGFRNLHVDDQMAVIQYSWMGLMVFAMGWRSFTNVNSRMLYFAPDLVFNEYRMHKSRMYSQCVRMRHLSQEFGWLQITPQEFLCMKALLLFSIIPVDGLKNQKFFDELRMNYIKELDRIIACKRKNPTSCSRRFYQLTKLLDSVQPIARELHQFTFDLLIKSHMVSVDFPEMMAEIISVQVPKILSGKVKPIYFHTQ
Experiment: human AR antagonist assay (Indigo Biosciences)
Assay type: cell-based
Design: purchased Indigo Biosciences
Details: Table A

- molecule: "C[C@]12CC[C@@]3(C)C(=C1C[C@@H](O)C2)CCC1=CC(=O)CC[C@@H]13 [Compound 102]"
  IC50 / nM: 654
- molecule: "C[C@]12CC[C@@]3(C)C(=C1C[C@H](O)C2)CCC1=CC(=O)CC[C@@H]13 [Compound 103]"
  IC50 / nM: 1240
- molecule: "C[C@@]12CC[C@]3(C)C(=C1C[C@@H](O)C2)CCC1=CC(=O)CC[C@H]13 [Compound 105]"
  IC50 / nM: 1500
